- Measured target: T. cruzi CYP51 (Tulahuen strain) (Trypanosoma cruzi, UniProt Q7Z1V1)
- Construct: ompA leader (N); host or cells: E. coli JM109 (membrane fraction, bactosomes)
- Sequence (Q7Z1V1 whole entry): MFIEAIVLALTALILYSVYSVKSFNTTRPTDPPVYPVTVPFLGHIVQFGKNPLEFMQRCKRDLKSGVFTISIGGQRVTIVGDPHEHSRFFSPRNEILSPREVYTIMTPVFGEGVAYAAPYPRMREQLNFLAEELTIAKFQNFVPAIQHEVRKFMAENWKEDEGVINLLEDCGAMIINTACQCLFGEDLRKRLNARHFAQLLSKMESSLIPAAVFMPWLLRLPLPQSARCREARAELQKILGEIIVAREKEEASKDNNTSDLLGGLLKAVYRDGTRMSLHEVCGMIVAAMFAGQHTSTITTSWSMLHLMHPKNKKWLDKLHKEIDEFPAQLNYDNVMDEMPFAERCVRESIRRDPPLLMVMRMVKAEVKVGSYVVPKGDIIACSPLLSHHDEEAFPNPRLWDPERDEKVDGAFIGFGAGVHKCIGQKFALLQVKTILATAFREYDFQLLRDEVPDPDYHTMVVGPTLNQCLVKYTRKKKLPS
- Protocol: biochemical
- Format: biochemical
- Measurement setup: read-out: IC50 (μM), n = 3; 37 pmoles/mL T. cruzi CYP51 in bactosomes, 100 μM BOMCC, pH 7.4, 37°C; enzyme concentration defines minimum IC50 of approximately 0.02 μM
Measured metric: IC50

In: Any idea what IC50 was measured for Nc1ccc(S(=O)(=O)Nc2ccnn2-c2ccccc2)cc1 [Sulphaphenazole] ?
Out: > 8 µM
